- Tested on: PC-3
- Test protocol: Cytotoxicity against human PC3 cells after 48 hrs by MTT assay
- Type: functional, cell-based
- Experimental setup: PC-3, 48 h
pIC50: −log10 of the molar value.
Assign rule met whenever pIC50 does not fall below 5; assign rule not met whenever it does.

Is pIC50 at least 5? Consider COc1cc2c3c(c4cc(OC)c(OC)cc4c2cc1OC)C(c1cccs1)C1=C(CC(C)(C)CC1=O)N3 (stereo not given) rule met

Now consider COc1ccc(C2C3=C(CC(C)(C)CC3=O)Nc3c2c2cc(OC)c(OC)cc2c2cc(OC)c(OC)cc32)cc1OC (stereo not given) . rule not met

Now consider COc1cc2c3c(c4cc(OC)c(OC)cc4c2cc1OC)C(c1ccc(C(C)C)cc1)C1=C(CC(C)(C)CC1=O)N3 (stereo not given) . rule not met

Now consider COc1cc2c3c(c4cc(OC)c(OC)cc4c2cc1OC)C(c1ccc(Cl)cc1)C1=C(CC(C)(C)CC1=O)N3 (stereo not given) . rule not met

Now consider COc1cc2c3c(c4cc(OC)c(OC)cc4c2cc1OC)C(c1ccc(C(F)(F)F)cc1)C1=C(CC(C)(C)CC1=O)N3 (stereo not given) . rule not met

Now consider COc1cc2c3c(c4cc(OC)c(OC)cc4c2cc1OC)C(c1cc(OC)c(O)c(OC)c1)C1=C(CC(C)(C)CC1=O)N3 (stereo not given) . rule met

Now consider COc1cc2c3c(c4cc(OC)c(OC)cc4c2cc1OC)C(c1cccc2ccccc12)C1=C(CCCC1=O)N3 (stereo not given) . rule met
